- Tested target: cdk4/D (Homo sapiens)
- Sequence (P11802 whole entry): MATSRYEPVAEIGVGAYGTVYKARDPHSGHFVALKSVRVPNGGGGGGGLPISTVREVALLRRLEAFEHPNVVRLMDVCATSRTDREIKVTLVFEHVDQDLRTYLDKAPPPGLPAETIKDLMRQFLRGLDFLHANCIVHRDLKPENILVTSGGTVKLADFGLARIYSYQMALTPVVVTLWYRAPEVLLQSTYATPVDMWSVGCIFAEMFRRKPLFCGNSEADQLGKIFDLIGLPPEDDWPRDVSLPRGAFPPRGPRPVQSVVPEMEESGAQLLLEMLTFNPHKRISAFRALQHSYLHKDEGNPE
- Sequence (P24385 whole entry, further chain): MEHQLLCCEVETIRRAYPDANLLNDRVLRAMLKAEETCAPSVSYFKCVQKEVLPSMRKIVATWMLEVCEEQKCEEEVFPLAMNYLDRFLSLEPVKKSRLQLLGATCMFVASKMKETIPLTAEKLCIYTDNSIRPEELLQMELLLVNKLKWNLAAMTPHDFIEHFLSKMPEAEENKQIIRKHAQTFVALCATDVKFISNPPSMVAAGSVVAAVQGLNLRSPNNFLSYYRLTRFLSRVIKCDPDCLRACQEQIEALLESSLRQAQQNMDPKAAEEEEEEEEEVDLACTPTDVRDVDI
- Assay procedure: Cyclin-Dependent Kinase 4 (cdk4) Assay
- Format: biochemical
- Assay setup: read-out: cdk4/D IC50
Friendly reminder: IC50 below 500 nM is Satisfied, at or above is Not satisfied.

{"columns": ["Molecule", "Classification"],
 "data": [
  ["Cc1cc(Nc2ncc3ccc(=O)n(C(C)C)c3n2)ccc1O [Example 435]", "Not satisfied"],
  ["CCCn1c(=O)ccc2cnc(Nc3ccc(C)c(C)c3)nc21 [Example 318]", "Satisfied"],
  ["O=c1ccc2cnc(Nc3ccc(Cl)c(C(F)(F)F)c3)nc2n1C1CCCC1 [Example 546]", "Not satisfied"],
  ["O=c1ccc2cnc(Nc3ccc(O)c(CN4CCOCC4)c3)nc2n1C1CCCC1 [Example 550]", "Satisfied"],
  ["CCC(CC)n1c(=O)ccc2cnc(Nc3ccc4cn[nH]c4c3)nc21 [Example 518]", "Satisfied"],
  ["Cn1c(=O)ccc2cnc(Nc3ccc(NC(=O)OC(C)(C)C)cc3)nc21 [Example 615]", "Not satisfied"],
  ["CCC(CC)n1c(=O)ccc2cnc(Nc3ccc(NC(=O)OC(C)(C)C)cc3)nc21 [Example 494]", "Satisfied"],
  ["CCC(C)n1c(=O)ccc2cnc(Nc3cc(F)cc(F)c3)nc21 (stereo not shown) [Example 472]", "Satisfied"],
  ["CC(C)(C)OC(=O)Nc1ccc(Nc2ncc3ccc(=O)n(C4CCCC4)c3n2)cc1 [Example 535]", "Satisfied"],
  ["CCCn1c(=O)ccc2cnc(Nc3ccc4c(c3)C(C)C(C)N4)nc21 (stereo not shown) [Example 356]", "Satisfied"],
  ["CC(=O)Nc1cc(Nc2ncc3ccc(=O)n(CC(F)(F)F)c3n2)ccc1C#N [Example 604]", "Not satisfied"],
  ["CCC(CC)n1c(=O)ccc2cnc(Nc3cc(C)c(O)c(C)c3)nc21 [Example 523]", "Satisfied"],
  ["NS(=O)(=O)c1ccc(Nc2ncc3ccc(=O)n(CC4CC4)c3n2)cc1 [Example 571]", "Satisfied"],
  ["CCC(CC)n1c(=O)ccc2cnc(Nc3ccc(F)c(F)c3)nc21 [Example 509]", "Satisfied"],
  ["CCC(C)n1c(=O)ccc2cnc(Nc3ccc(C)c(Br)c3)nc21 (stereo not shown) [Example 478]", "Not satisfied"],
  ["CCCCn1c(=O)ccc2cnc(Nc3ccc(OC)cc3)nc21 [Example 385]", "Not satisfied"]
]}

Cited source: patent US20040224958A1
